Where do the numbers come from? From paper PMC8809517.

assayed_system: T1, GFP-9S library array, motif 4 ND N98L;D124L (synthetic construct, N98L;D124L)
T1 chain: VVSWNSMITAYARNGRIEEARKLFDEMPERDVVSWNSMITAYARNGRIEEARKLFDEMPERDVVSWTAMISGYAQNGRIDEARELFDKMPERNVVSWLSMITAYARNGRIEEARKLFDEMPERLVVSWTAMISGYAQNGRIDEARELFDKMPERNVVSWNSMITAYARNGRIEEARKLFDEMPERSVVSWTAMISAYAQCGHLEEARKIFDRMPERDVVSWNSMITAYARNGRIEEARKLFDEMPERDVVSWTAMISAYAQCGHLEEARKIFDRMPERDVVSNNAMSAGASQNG
assay_remarks: high-throughput RNA pulldown from lysate on Ni-NTA beads; HRP: 50 mM Tris pH 8, 150 mM NaCl, 1 mM beta-mercaptoethanol, 50 ug/ml BSA, 3 ug/ml yeast RNA, 0.5% heparin; ITC and FP: Tris pH 8, 200 mM KCl, 5% glycerol; MST: 50 mM Tris pH 8, 200 mM NaCl, 1 mM DTT, BSA, heparin, 0.05% Tween 20
condition_details: tags: N-terminal His-eGFP; label: 5' IRDye 800CW
Each record here notes measured pKd.
Just the number, please; pKd means minus log10 of the concentration in mol/L.

AUUAUACGUGA (ssRNA) [IR-rpoA-U]; 6.80

// moving on: another record for pKd
// pKd lookup, binder = AUUAAACGUGA (ssRNA) [IR-rpoA-A] , result: 6.80
